System: SUDIPGIV (diffuse intrinsic pontine glioma line)
Assay Overview: growth inhibition (% activity, log2 RLU normalised to DMSO / staurosporine); higher = more growth inhibition
Applied Conditions: 33 µM
Readout Label: growth inhibition

{"columns": ["Compound", "Tgt", "Result"],
 "data": [
  ["CCOC(=O)[C@H](CCc1ccccc1)N[C@@H](C)C(=O)N1C(=O)N(C)C[C@H]1C(=O)O", "SUDIPGIV", "-1.04%"],
  ["OC1(c2ccc(Cl)c(C(F)(F)F)c2)CCN(CCCC(c2ccc(F)cc2)c2ccc(F)cc2)CC1", "SUDIPGIV", "4.36%"],
  ["Cc1cc(NS(=O)(=O)c2ccc(N)cc2)no1", "SUDIPGIV", "-3.28%"],
  ["CCOC(=O)[C@H](CCc1ccccc1)N[C@@H](C)C(=O)N1CCC[C@H]1C(=O)O", "SUDIPGIV", "-1.94%"],
  ["NC1CCN(c2c(F)cc3c(=O)c(C(=O)O)cn(C4CC4)c3c2Cl)C1 (stereo not given)", "SUDIPGIV", "-0.22%"],
  ["NS(=O)(=O)c1cc(Cl)c(Cl)c(S(N)(=O)=O)c1", "SUDIPGIV", "-2.27%"],
  ["CCCCCCOC(=O)NC(=N)c1ccc(NCc2nc3cc(C(=O)N(CCC(=O)OCC)c4ccccn4)ccc3n2C)cc1", "SUDIPGIV", "0.438%"],
  ["O=C(Nc1ccccc1)c1ccccc1O", "SUDIPGIV", "5.1%"],
  ["CN(C)CCOC(C)(c1ccccc1)c1ccccn1 (stereo not given)", "SUDIPGIV", "-0.218%"],
  ["Nc1nc(O)c2ncn(CCC(CO)CO)c2n1", "SUDIPGIV", "0.184%"]
]}

* * *

Overview of reported growth inhibition across a group of compounds:
System: SUDIPGIV
Assay Overview: growth inhibition (% activity, log2 RLU normalised to DMSO / staurosporine); higher = more growth inhibition
Applied Conditions: 33 µM
Readout Label: growth inhibition (%)

{"columns": ["Compound", "Unit", "Measured Number"],
 "data": [
  ["CO[C@H]1/C=C/O[C@@]2(C)Oc3c(C)c(O)c4c(O)c(c5c(nc6cc(C)ccn65)c4c3C2=O)NC(=O)/C(C)=C\\C=C\\[C@H](C)[C@H](O)[C@@H](C)[C@@H](O)[C@@H](C)[C@H](OC(C)=O)[C@@H]1C", "%", -1.07],
  ["C[C@H](CS)C(=O)N1CCC[C@H]1C(=O)O", "%", -0.14],
  ["Oc1cc(O)c(Cl)cn1", "%", -2.24],
  ["NS(=O)(=O)c1cc2c(cc1Cl)N=CNS2(=O)=O", "%", -3.95],
  ["CCOC(=O)O[C@]1(C(=O)OCCl)CC[C@H]2[C@@H]3CCC4=CC(=O)C=C[C@]4(C)[C@H]3[C@@H](O)C[C@@]21C", "%", -2.17],
  ["C[C@@H](O)[C@H]1C(=O)N2C(C(=O)O)=C(S[C@@H]3CN[C@H](C(=O)N(C)C)C3)[C@H](C)[C@H]12", "%", -2.08],
  ["CCOC(=O)CC(=O)N1CCSC1COc1ccccc1OC (stereo unspecified)", "%", 4.58],
  ["CN(C)CCC(c1ccc(Br)cc1)c1ccccn1 (stereo unspecified)", "%", -0.116],
  ["N=C(N)c1ccc(N=NNc2ccc(C(=N)N)cc2)cc1", "%", 15.4],
  ["C[C@@](Cc1ccc(O)c(O)c1)(NN)C(=O)O", "%", 0.65],
  ["Clc1ccc2c(c1)CCc1cccnc1C2=C1CCNCC1", "%", -0.876],
  ["Nc1cccc2c1C(=O)N(C1CCC(=O)NC1=O)C2=O (stereo unspecified)", "%", -0.313],
  ["CCOc1nc2cccc(C(=O)OC(C)OC(=O)OC3CCCCC3)c2n1Cc1ccc(-c2ccccc2-c2nn[nH]n2)cc1 (stereo unspecified)", "%", -3.13],
  ["Nc1c2ccccc2nc2ccccc12", "%", 14.3],
  ["Cc1oncc1C(=O)Nc1ccc(C(F)(F)F)cc1", "%", 28.2],
  ["CCCCCOC(=O)Nc1nc(=O)n([C@@H]2O[C@H](C)[C@@H](O)[C@H]2O)cc1F", "%", -0.463],
  ["NCCc1c[nH]cn1", "%", 0.269],
  ["O=C(N[C@H](CO)[C@H](O)c1ccc([N+](=O)[O-])cc1)C(Cl)Cl", "%", -0.734],
  ["O=C(O)c1cccnc1", "%", -0.463],
  ["Clc1ccccc1CN1CCc2sccc2C1", "%", 0.722],
  ["CCn1nc(C(=O)O)c(=O)c2cc3c(cc21)OCO3", "%", -0.519],
  ["C[C@H](CCC(=O)O)[C@H]1CC[C@H]2[C@@H]3CC[C@@H]4C[C@H](O)CC[C@]4(C)[C@H]3CC[C@]12C", "%", -1.6],
  ["Oc1ccc(/C=C/c2cc(O)cc(O)c2)cc1", "%", -5.92],
  ["Cc1cnc(NC(=O)C2=C(O)c3ccccc3S(=O)(=O)N2C)s1", "%", -3.44],
  ["Clc1ccc(C(Cn2ccnc2)OCc2c(Cl)cccc2Cl)c(Cl)c1 (stereo unspecified)", "%", 11.2],
  ["C[C@@H]1C/C=C/C=C/C=C/C=C/[C@H](O[C@@H]2O[C@H](C)[C@@H](O)[C@H](N)[C@@H]2O)C[C@@H]2O[C@](O)(C[C@@H](O)C[C@H]3O[C@@H]3/C=C/C(=O)O1)C[C@H](O)[C@H]2C(=O)O", "%", 0.119],
  ["Cc1cc2nc3c(=O)[nH]c(=O)nc-3n(C[C@H](O)[C@H](O)[C@H](O)CO)c2cc1C", "%", 4.43],
  ["O=NO", "%", -0.178],
  ["COC(c1ccccc1)(c1ccccc1)[C@H](Oc1nc(C)cc(C)n1)C(=O)O", "%", -2.2],
  ["CCc1cc2c(cc1CC)CC(NC[C@H](O)c1ccc(O)c3[nH]c(=O)ccc13)C2", "%", 1.53],
  ["O=C(O)c1ccccc1", "%", 1.15],
  ["CC#CCn1c(N2CCC[C@@H](N)C2)nc2c1c(=O)n(Cc1nc(C)c3ccccc3n1)c(=O)n2C", "%", -2.46],
  ["CN(C)C/C=C/C(=O)Nc1cc2c(Nc3ccc(F)c(Cl)c3)ncnc2cc1O[C@H]1CCOC1", "%", 10.9],
  ["CO[C@H]1/C=C/O[C@@]2(C)Oc3c(C)c(O)c4c(O)c(c(/C=N/N5CCN(C)CC5)c(O)c4c3C2=O)NC(=O)/C(C)=C\\C=C\\[C@H](C)[C@H](O)[C@@H](C)[C@@H](O)[C@@H](C)[C@H](OC(C)=O)[C@@H]1C", "%", -0.0069],
  ["CCOc1nc2cccc(C(=O)O)c2n1Cc1ccc(-c2ccccc2-c2noc(=O)[nH]2)cc1", "%", -0.526],
  ["CNS(=O)(=O)CCc1ccc2[nH]cc(C3CCN(C)CC3)c2c1", "%", 1.09],
  ["Nc1nc(=O)c2c([nH]1)NC[C@H](CNc1ccc(C(=O)N[C@@H](CCC(=O)O)C(=O)O)cc1)N2C=O", "%", 2.82],
  ["Cc1ncc([N+](=O)[O-])n1CCO", "%", 0.605],
  ["COc1ccc(Cl)cc1C(=O)NCCc1ccc(S(=O)(=O)NC(=O)NC2CCCCC2)cc1", "%", 0.343],
  ["O=C1O[C@H]([C@@H](O)CO)C(O)=C1O", "%", 0.144],
  ["CCCCCCCCCCCCCCCC[N+](C)(C)C", "%", 36.8]
]}

* * *

Tested on: DIPGX7 (H3.3 K27M diffuse intrinsic pontine glioma line)
Assay Overview: growth inhibition (% activity, log2 RLU normalised to DMSO / staurosporine); higher = more growth inhibition
Applied Conditions: 33 µM
Overview of reported growth inhibition across a group of molecules:
Readout Label: growth inhibition (%)

{"columns": ["Molecule", "Unit", "Measured Number"],
 "data": [
  ["CC(=O)OCC(=O)[C@@]12OC(C)(C)O[C@@H]1C[C@H]1[C@@H]3C[C@H](F)C4=CC(=O)C=C[C@]4(C)[C@@]3(F)[C@@H](O)C[C@@]12C", "%", -1.12],
  ["Oc1ncnc2[nH]ncc12", "%", -0.64],
  ["N#Cc1ccc(C(c2ccc(C#N)cc2)n2cncn2)cc1", "%", -0.157],
  ["CCN(CC)CCCC(C)Nc1ccnc2cc(Cl)ccc12 (stereo not given)", "%", 3.48],
  ["COc1ccccc1OCCNCC(O)COc1cccc2[nH]c3ccccc3c12 (stereo not given)", "%", 3.4],
  ["Nc1ncn(C2OC(CO)C(O)C2O)c(=O)n1 (stereo not given)", "%", 5.91],
  ["NC(=O)N1c2ccccc2C=Cc2ccccc21", "%", 0.653],
  ["COc1ccc2cc(CCC(C)=O)ccc2c1", "%", 1.11],
  ["Nc1nc(Cl)nc2c1ncn2[C@H]1C[C@H](O)[C@@H](CO)O1", "%", 14.4],
  ["CN1CCN(c2c(F)cc3c(=O)c(C(=O)O)cn(CCF)c3c2F)CC1", "%", 2.04],
  ["CCOC(=O)CCC(=O)O[C@H]1[C@H](O[C@@H]2[C@@H](C)[C@H](O[C@H]3C[C@@](C)(OC)[C@@H](O)[C@H](C)O3)[C@@H](C)C(=O)O[C@H](CC)[C@@](C)(O)[C@H](O)[C@@H](C)C(=O)[C@H](C)C[C@@]2(C)O)O[C@H](C)C[C@@H]1N(C)C", "%", 1.67],
  ["O=C(O)c1cn(-c2ccc(F)cc2)c2cc(N3CCNCC3)c(F)cc2c1=O", "%", 2.46],
  ["Cc1cccc(C)c1NC(=O)C1CCCCN1C (stereo not given)", "%", -0.12],
  ["NC(=O)c1cnccn1", "%", -1.41],
  ["Cn1ccnc1S", "%", -1.31],
  ["CC(C)[N+]1(C)[C@@H]2CC[C@H]1C[C@@H](OC(=O)C(CO)c1ccccc1)C2 (stereo not given in full)", "%", 0.48],
  ["CC(=O)OCC(=O)[C@@]12N=C(C)O[C@@H]1C[C@H]1[C@@H]3CCC4=CC(=O)C=C[C@]4(C)[C@H]3[C@@H](O)C[C@@]12C", "%", 0.297],
  ["CC(O)(P(=O)(O)O)P(=O)(O)O", "%", -0.11],
  ["CCCCCCCCCCCCCCCC(=O)O[C@@H]1[C@@H](O)[C@@H](O)[C@@H]([C@H](NC(=O)[C@@H]2C[C@@H](CCC)CN2C)[C@H](C)Cl)O[C@@H]1SC", "%", 0.64],
  ["c1ccc(CN(CC2=NCCN2)c2ccccc2)cc1", "%", 0.575]
]}
